For each of the compounds below, state its composite z-score.
Experiment: binders of probe aHhip on microarray, primary screen, stem cell growth factor project, biochemical, small-molecule microarray, fluorescence 635/667 (AID 1087);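 note: score merges spot fluorescence at 667nm with spot signal to noise ratio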
Conditions: higher = more signal
Keep the answer to the number alone.

# lookup: composite z-score of `CC(C)N1C(=O)c2ccccc2[C@@H](C(=O)NCCN2CCOCC2)[C@@H]1c1ccc(CO)cc1`
-0.284

Reported composite z-score for `COc1ccc(C#Cc2ccc3c(c2)[C@]2(C(=O)N3)[C@H](c3ccc(OCCO)cc3)N3[C@H](c4ccccc4)[C@H](c4ccccc4)OC(=O)[C@H]3[C@@H]2C(=O)NC[C@H](O)c2ccccc2)cc1` : what is it?
-0.236

If you can, please state the reported composite z-score value of CC(C)C(CO)N1C(=O)[C@@H]2C3C(=O)OCCC/C=C\[C@H]3OC23C=CCN(c2ccc4ccccc4c2)C(=O)[C@@H]13 (some centres not stated) .
0.176

Entry under review: CC(C)C(CO)N1C(=O)[C@@H]2C3C(=O)OCCC/C=C\[C@H]3OC23C=CCN(Cn2nnc4ccccc42)C(=O)[C@@H]13 (some centres not stated) . Reported composite z-score?
-0.306

Report composite z-score for `COCCOC(=O)N1C(=O)[C@@]2(c3cc(C#CC4(O)CCCCCC4)ccc31)[C@H](C(=O)Nc1nc3ccccc3s1)[C@H]1C(=O)O[C@H](c3ccccc3)[C@H](c3ccccc3)N1[C@@H]2c1ccc(O)cc1` please.
0.107

Please give the measured composite z-score for this compound: COC(=O)C1(CC(C)C)C=C2C(=C(c3ccccc3)C(=O)C2C)CN1 (configuration not stated)
0.935

Dear colleague, I am looking for the recorded composite z-score of the following compound: `CCCC=C(CCC)[C@@H](NC(=O)c1cccs1)c1ccc(C(=O)OC)cc1`
1.39

# lookup: composite z-score of CS(=O)(=O)CCOC(=O)C1=CC(c2ccc(CO)cc2)=CC(C2CC2)N(Cc2sc3ccccc3c2Cl)C=C1C(=O)OCCS(C)(=O)=O (configuration not stated)
0.316

Given the compound `COc1ccc([Si](C)(C)[C@@H]2[C@@H](CCO)O[C@]3(C(=O)N(Cc4cccc(NC(=O)[C@H](C)O)c4)c4ccccc43)[C@H]2C)cc1` , what is its reported composite z-score?
-0.249

Which composite z-score value is on record for `O=C1[C@H]2C=C(I)[C@H](C[C@@H]2OCCOCCO)[C@@]12CO2` ?
0.0722

I'd like to know its composite z-score. The compound in question is `COc1ccc([Si](C)(C)[C@H]2[C@H](CC(=O)N3Cc4ccccc4C[C@H]3CO)O[C@@]3(C(=O)N(Cc4ccc(N5CCOC5=O)cc4)c4ccccc43)[C@@H]2C)cc1`
-0.0296

composite z-score lookup needed for CCCC1(C(=O)OC)C=C2C(=C(C)C(=O)C2C)CN1 (configuration not stated) , thanks.
-0.0645
